- EXPERIMENT_NOTES: NCI Yeast Anticancer Drug Screen. Data for the sgs1 mgt1 strain (AID 161);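 also: 0% = growth of cultures given vehicle only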
- CONDITION: S. cerevisiae sgs1 mgt1 strain, at 50.0 µM, hits give high values
The panel holds about 79,000 compounds, 15% with a hit somewhere; the sample as a whole holds those more often.
MEASURED_METRIC: growth inhibition (%)

# COMPOUND, UNIT_NAME, EXPERIMENTAL_RESULT
rows = [
    ("O=C1COC(=O)N1", "%", -3.45),
    ("CN(Cc1cccc(Cl)c1)C(=O)Nc1ccccc1Cl", "%", 47.5),
    ("O=C1CC(c2ccccc2)S(=O)c2ccccc2N1 (configuration not stated)", "%", -9.9),
    ("COC(=O)CCCc1ccccc1N", "%", -18.9),
    ("O=C1/C(=C/c2ccco2)N=C2Sc3c(nc[nH]c3=O)N12", "%", 6.55),
    ("Cc1cc(O)c2c(c1)C(=O)c1c(-c3ccc(O)c4c3C(=O)c3c(O)c(C)cc(O)c3C4=O)ccc(O)c1C2=O", "%", -17.1),
    ("COc1ccc(N=Cc2cc(OC)c(OC)c(OC)c2)cc1", "%", 1.5),
    ("O=C(O)C#Cc1ccc([N+](=O)[O-])cc1", "%", 2.35),
    ("CC1=N/C(=C\\c2cccs2)C(=O)O1", "%", 28.1),
    ("NNS(=O)(=O)c1ccc(/C=C2\\NC(=O)NC2=O)cc1", "%", -17.2),
    ("CCC1(CN(C)C)CC/C(=C\\c2ccc(OC)cc2)C1=O (configuration not stated)", "%", -9.2),
    ("C=CCOC(C)n1c(C)cc(=O)n(C(C)OCC=C)c1=O (configuration not stated)", "%", -46.6),
]
